System name: human endothelial constitutive NOS (hecNOS) (Homo sapiens)
Method summary: Citrulline assay for nitric oxide synthase (hecNOS)
Condition details: recombinant enzyme from Sf9 cells; 30 μM L-arginine; calmodulin 40-100 nM; 37° C., 15 minutes
Where a name gives a salt, the structure may show the parent alone.
Measured endpoint: IC50 (µM)
Answers are plain numbers, in µM.

response.value for CC(=N)NCC/C=C\CC(C)(N)C(=O)O (racemic) [Example 1, Dihydrochloride] (field: IC50) = 386

###

System name: Human inducible NOS (hiNOS) (Homo sapiens, UniProt P35228)
Sequence (P35228 whole entry): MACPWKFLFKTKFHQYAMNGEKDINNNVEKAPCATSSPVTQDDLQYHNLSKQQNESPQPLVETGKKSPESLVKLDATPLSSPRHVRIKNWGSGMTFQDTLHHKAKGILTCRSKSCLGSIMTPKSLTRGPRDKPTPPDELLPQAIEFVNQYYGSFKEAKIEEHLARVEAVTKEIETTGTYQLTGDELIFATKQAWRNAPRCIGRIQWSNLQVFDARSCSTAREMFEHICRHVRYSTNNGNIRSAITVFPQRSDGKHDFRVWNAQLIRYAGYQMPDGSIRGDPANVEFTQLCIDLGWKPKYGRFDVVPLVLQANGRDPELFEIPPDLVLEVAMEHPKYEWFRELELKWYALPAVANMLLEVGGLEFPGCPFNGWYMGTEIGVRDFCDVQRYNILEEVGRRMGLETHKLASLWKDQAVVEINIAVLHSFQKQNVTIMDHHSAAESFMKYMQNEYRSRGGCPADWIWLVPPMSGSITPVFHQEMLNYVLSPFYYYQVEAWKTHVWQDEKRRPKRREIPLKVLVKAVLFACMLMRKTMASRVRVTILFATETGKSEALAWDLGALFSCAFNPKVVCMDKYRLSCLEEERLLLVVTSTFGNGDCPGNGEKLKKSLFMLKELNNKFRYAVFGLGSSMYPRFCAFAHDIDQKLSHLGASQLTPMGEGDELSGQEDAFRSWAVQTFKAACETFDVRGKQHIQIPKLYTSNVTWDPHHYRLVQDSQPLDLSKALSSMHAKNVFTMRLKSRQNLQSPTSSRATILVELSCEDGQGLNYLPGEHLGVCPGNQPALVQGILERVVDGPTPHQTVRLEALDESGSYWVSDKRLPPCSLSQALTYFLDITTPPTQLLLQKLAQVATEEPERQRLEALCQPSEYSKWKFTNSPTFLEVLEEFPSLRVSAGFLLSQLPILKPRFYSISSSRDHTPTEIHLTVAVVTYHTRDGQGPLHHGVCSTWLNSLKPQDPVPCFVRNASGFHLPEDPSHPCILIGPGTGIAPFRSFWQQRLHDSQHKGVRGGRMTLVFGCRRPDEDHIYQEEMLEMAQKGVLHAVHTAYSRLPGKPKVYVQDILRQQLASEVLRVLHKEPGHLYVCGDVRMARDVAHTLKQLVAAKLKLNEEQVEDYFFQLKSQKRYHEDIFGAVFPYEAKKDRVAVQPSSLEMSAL
Method summary: Citrulline assay for nitric oxide synthase (hiNOS)
Condition details: recombinant enzyme from Sf9 cells; 30 μM L-arginine; 37° C., 15 minutes
Counter-ions that a name gives are not always drawn.
Measured endpoint: pIC50
Give bare numbers, as −log10 of the molar value.

response.value for CC(=N)NCC/C=C\CC(C)(N)C(=O)O (racemic) [Example 1, Dihydrochloride] (field: pIC50) = 4.47
